# targetSystem: mouse B6 class I antigens (D^b or K^b molecules on the surface of RMA-S cells) (mouse (C57Bl/6))
# procedureDetails: RMA-S class I stabilisation, peptide 25 ug/ml, flow cytometry with FITC anti-D^b or anti-K^b
measure: Binding Affinity to Mouse MHC Class I (% increase of D^b or K^b on RMA-S cells) (%)

# count of solved cases: 3
>>> assayresult("NLYQMTSQL [WT1 peptide p225-233 …]")
5.8
>>> assayresult("GCNKRYFKL [WT1 peptide p329-337 …]")
1.2
>>> assayresult("NQMNLGATL [WT1 peptide p239-247 …]")
1

[1] QMTSQLECM [WT1 peptide p228-236 …]
[2] SCLESQPAI [WT1 peptide human p136-144 …]
[3] CMTWNQMNL [WT1 peptide p235-243 …]
[4] YSSDNLYQM [WT1 peptide p221-229 …]
[5] ALLPAVPSL [WT1 peptide human p10-18 …]
Ordering criterion: Binding Affinity to Mouse MHC Class I (% increase of D^b or K^b on RMA-S cells); begin with the maximum. Give the order by naming the labels one after another as requested. 2, 3, 5, 1, 4
